Entry source: ChEMBL document CHEMBL1131748

# Tested on: Mycobacterium avium
# EXPERIMENTAL DETAILS: Minimum inhibitory concentration required in vitro to reduce the number of viable of Mycobacterium avium complex (MAC) ATCC 49601 by 50%
# Type: functional
// MIC50 lookup, one value per entry

{"LINE NOTATION": "O=C(O)c1cn(C2CC2)c2cc(NC3CC3)c(F)cc2c1=O", "MIC50": "> 200 µM"}
{"LINE NOTATION": "CC(C)(C)Nc1cc2c(cc1F)c(=O)c(C(=O)O)cn2C(C)(C)C", "MIC50": "> 200 µM"}
{"LINE NOTATION": "O=C(O)c1cn(C2CC2)c2cc(NC3CC3)c([N+](=O)[O-])cc2c1=O", "MIC50": "> 200 µM"}
